Exercise: for every item that follows, state its recorded IC50.
Biological target: SIK1 kinase (aa1-303, Thermo Fisher) (Homo sapiens, UniProt P57059)
Construct: SIK1 kinase (aa1-303, Thermo Fisher); purchased Thermo Fisher
Sequence (P57059 1-303): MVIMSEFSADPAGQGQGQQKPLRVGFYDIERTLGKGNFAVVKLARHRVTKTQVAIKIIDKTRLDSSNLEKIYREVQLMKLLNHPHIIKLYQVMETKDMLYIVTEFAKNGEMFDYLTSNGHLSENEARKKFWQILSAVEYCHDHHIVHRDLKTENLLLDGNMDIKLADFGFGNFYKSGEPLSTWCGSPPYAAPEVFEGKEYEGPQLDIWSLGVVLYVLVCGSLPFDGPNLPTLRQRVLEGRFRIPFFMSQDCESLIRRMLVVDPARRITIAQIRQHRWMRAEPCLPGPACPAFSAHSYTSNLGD
Assay: Biochemical activities determination for SIK1 protein (TR-FRET)
Conditions: 110 uM ATP, 0.5 μM STK1 substrate

input: Find the recorded IC50 belonging to COc1cc(-c2coc3cc(-c4cnnc(C)c4)ccc23)cc2c1C(=O)N(CC(F)(F)F)CC2 [Example 10] and report it.
output: > 10000 nM

input: Look up IC50: CN1CCC[C@H]1COc1cc(-c2coc3cc(OCCN4CCCC4)ccc23)cc(OC(F)F)c1C(=O)NC1CC1 [Compound 113]
output: > 10000 nM

input: What value of measured IC50 is listed for COc1cc(-c2coc3cc(-c4cnn(C)c4)ccc23)cc2c1C(=O)N(CC(F)(F)F)CCO2 [Compound 28] ?
output: 3940 nM

input: Consider the compound shown here: CCn1cc(-c2ccc3c(-c4cc5c(c(OC)c4)C(=O)N(CC(F)(F)F)CC5)coc3c2)cn1 [Example 2] What is its recorded IC50?
output: 375 nM

input: Given the compound CN(C)CCOc1cc(-c2coc3cc(OCCN4CCCC4)ccc23)cc(OC(F)F)c1C(=O)NC1CC1 [Compound 118] , what is its reported IC50?
output: > 10000 nM

input: # IC50 lookup, item COc1cc(-c2coc3cc(-c4cnn(C)c4)cc(F)c23)cc2c1C(=O)N(CC(F)(F)F)CC2 [Example 11]
output: 1550 nM

input: Looking for the measured IC50 of O=C(NC1CC1)c1c(OC(F)F)cc(-c2coc3cc(OCCN4CCCC4)ccc23)cc1O[C@H]1CC[C@@H](O)CC1 [Compound 102] , can you help?
output: > 10000 nM

input: Could you tell me which IC50 is on file for COc1cc(-c2coc3cc(-c4ccc(C)nn4)ccc23)cc(OC(F)F)c1C(=O)NC1CC1 [Compound 133] ?
output: > 10000 nM

input: If you can, please state the reported IC50 value of CC(C)Oc1cc(-c2coc3cc(OCCN4CCCC4)ccc23)cc(OC(F)F)c1C(=O)NC1CC1 [Compound 120] .
output: > 10000 nM
